target.under.test: human insuline receptor (Ins-R) (Homo sapiens, UniProt P06213)
Construct: GST-tagged recombinant kinase domain of the human insuline receptor; GST; purchased ProQinase, Freiburg, Germany; host or cells: SF-9 cells
Sequence (P06213 1023-1298 limits assumed): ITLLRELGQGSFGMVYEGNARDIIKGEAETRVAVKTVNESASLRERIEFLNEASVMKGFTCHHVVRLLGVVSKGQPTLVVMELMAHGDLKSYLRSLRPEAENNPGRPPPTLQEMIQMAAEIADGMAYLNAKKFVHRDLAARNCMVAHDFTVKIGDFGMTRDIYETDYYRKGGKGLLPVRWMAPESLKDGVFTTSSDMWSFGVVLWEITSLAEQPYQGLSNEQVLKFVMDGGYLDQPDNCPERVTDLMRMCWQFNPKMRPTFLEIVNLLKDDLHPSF
measurement.notes: InsR HTRF assay (selectivity vs. Tie2 assay 2)
Type: biochemical
conditions: IC50 assay 4/IC50 assay 2
Assignment: determine reported Selectivity vs. InsR for the given molecules.

Query: Form field: reported Selectivity vs. InsR of "Cn1ncc2c(-c3ccc(NC(=O)Nc4cc(C(C)(C)C)nn4-c4cncc(F)c4)c(F)c3)cncc21"
Reply: >50fold

Query: Form field: reported Selectivity vs. InsR of "COCCn1ncc2c(-c3ccc(NC(=O)Nc4cc(C)ccc4F)cc3)cncc21"
Reply: >50fold

Query: Form field: reported Selectivity vs. InsR of "Cn1ncc2c(-c3ccc(NC(=O)Nc4cc(C(F)(F)F)ccc4F)c(F)c3)cncc21"
Reply: >50fold

Query: Form field: reported Selectivity vs. InsR of "Cn1ncc2c(-c3ccc(NC(=O)Nc4cc(C(C)(C)C)on4)cc3)cncc21"
Reply: >50fold

Query: Form field: reported Selectivity vs. InsR of "CN(C(=O)Nc1cccc(C(F)(F)F)c1)c1ccc(-c2cncc3c2cnn3C)cc1"
Reply: >25fold

Query: Form field: reported Selectivity vs. InsR of CN(C)C1CCN(c2ccc(C(F)(F)F)cc2NC(=O)Nc2ccc(-c3cncc4c3cnn4C)cc2)C1 (centres unmarked)
Reply: >50fold

Query: Form field: reported Selectivity vs. InsR of "Cn1ncc2c(-c3ccc(NC(=O)Nc4cc(C(F)(F)F)ccn4)cc3)cncc21"
Reply: >50fold

Query: Form field: reported Selectivity vs. InsR of "COCCn1ncc2c(-c3ccc(NC(=O)Nc4cc(C(F)(F)F)ccc4F)c(F)c3)cncc21"
Reply: >50fold

###

target.under.test: Tie2 (Homo sapiens)
measurement.notes: Tie-2-Kinase HTRF-Assay without kinase preactivation
Type: biochemical
Design: fusion protein of GST and the intracellular domains of Tie-2; GST; made in house; host or cells: insect cells (Hi-5)
conditions: GST-Tie-2 intracellular domains, 10 μM ATP
Procedure: Tie2-inhibitory activity of compounds of the present invention was quantified employing two Tie2 HTRF assay as described in the following paragraphs. […] The resulting mixture was incubated 1 h at 22° C. to allow the binding of the biotinylated phosphorylated peptide to the streptavidine-XLent and the PT66-Eu-Chelate. Subsequently the amount of phosphorylated substrate peptide was evaluated by measurement of the resonance energy transfer from the PT66-Eu-Chelate to the streptavidine-XLent. […]
Sequence (Q02763 770-1124 limits assumed, species assumed): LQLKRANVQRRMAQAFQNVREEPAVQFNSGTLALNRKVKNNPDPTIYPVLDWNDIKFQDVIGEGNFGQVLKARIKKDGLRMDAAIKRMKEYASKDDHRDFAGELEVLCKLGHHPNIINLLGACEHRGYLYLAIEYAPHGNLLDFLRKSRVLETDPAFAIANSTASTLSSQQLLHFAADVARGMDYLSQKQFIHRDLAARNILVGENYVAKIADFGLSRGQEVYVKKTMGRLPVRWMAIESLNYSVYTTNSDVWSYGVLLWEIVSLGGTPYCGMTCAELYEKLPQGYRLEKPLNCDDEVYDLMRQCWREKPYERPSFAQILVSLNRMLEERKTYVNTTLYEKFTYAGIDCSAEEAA
readout.type: IC50

Query: Form field: reported IC50 of "Cn1ncc2c(-c3ccc(NC(=O)Nc4cc(C(F)(F)F)ccn4)c(F)c3)cncc21"
Reply: < 501 nM

Query: Form field: reported IC50 of "Cn1ncc2c(-c3ccc(NC(=O)Nc4cccc(C(F)(F)F)c4)c(F)c3)cncc21"
Reply: < 501 nM

Query: Form field: reported IC50 of "Cn1ncc2c(-c3ccc(NC(=O)Nc4cc(C(C)(C)C)nn4-c4ccc(F)cc4)cc3)cncc21"
Reply: < 501 nM

###

Assignment: determine reported IC50 for the given molecules.
target.under.test: Tie2 (Homo sapiens, UniProt Q02763)
measurement.notes: Tie2 ELISA assay (cellular Tie2 autophosphorylation)
Assay type: cell-based
Design: expressed in transfected cells; host or cells: CHO (CHO Tie2/DHFR)
conditions: CHO cells stably transfected with Tie2, stimulated by angiopoietin-2; Tie2 autophosphorylation by sandwich-ELISA; read-out: Tie 2 activity (assay 1)
Sequence (Q02763 23-1124, species assumed): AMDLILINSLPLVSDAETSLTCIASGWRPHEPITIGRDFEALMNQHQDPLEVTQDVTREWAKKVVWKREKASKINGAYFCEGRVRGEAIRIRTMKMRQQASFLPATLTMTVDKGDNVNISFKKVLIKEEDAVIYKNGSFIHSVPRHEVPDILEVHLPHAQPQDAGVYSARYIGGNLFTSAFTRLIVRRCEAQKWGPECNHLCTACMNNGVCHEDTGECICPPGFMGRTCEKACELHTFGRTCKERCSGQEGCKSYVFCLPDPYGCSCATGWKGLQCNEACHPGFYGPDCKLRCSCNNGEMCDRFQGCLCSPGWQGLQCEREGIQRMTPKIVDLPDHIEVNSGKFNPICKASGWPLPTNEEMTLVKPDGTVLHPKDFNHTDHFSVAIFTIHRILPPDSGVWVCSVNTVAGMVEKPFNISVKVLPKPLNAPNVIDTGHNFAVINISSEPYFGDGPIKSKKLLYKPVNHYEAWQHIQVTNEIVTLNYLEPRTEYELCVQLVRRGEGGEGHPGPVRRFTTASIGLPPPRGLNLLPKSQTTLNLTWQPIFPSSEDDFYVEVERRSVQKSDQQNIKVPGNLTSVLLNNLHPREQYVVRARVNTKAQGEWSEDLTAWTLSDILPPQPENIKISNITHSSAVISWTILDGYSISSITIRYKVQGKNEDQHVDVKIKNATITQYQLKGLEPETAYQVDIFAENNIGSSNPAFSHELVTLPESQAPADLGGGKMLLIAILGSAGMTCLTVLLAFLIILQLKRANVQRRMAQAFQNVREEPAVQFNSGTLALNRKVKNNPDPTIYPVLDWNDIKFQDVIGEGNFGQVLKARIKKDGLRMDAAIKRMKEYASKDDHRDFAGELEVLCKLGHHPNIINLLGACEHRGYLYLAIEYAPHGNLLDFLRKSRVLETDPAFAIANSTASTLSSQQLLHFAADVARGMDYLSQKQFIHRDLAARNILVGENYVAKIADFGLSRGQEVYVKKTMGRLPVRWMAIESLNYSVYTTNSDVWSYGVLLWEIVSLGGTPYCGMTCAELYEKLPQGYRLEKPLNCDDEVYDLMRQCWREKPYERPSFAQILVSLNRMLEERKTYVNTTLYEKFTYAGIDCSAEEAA

Query: Form field: reported IC50 of COCCn1ncc2c(-c3ccc(NC(=O)Nc4cccc(C(F)(F)F)c4)c(F)c3)cncc21 [Example 12.4]
Reply: < 501 nM

Query: Form field: reported IC50 of COCCn1ncc2c(-c3ccc(NC(=O)Nc4cccc(C(F)(F)F)c4)cc3)cncc21 [Example 12.1]
Reply: < 501 nM

Query: Form field: reported IC50 of CN1CCN(Cc2ccc(NC(=O)Nc3ccc(-c4cncc5c4cnn5C)cc3)cc2C(F)(F)F)CC1 [Example 6.4]
Reply: < 501 nM

Query: Form field: reported IC50 of Cc1ccc(F)c(NC(=O)Nc2ccc(-c3cncc4c3cnn4C)cc2)c1 [Example 1.3]
Reply: < 501 nM

###

target.under.test: Tie2 (Homo sapiens, UniProt Q02763)
measurement.notes: Tie2 ELISA assay (cellular Tie2 autophosphorylation)
Assay type: cell-based
Design: expressed in transfected cells; host or cells: CHO (CHO Tie2/DHFR)
conditions: CHO cells stably transfected with Tie2, stimulated by angiopoietin-2; Tie2 autophosphorylation by sandwich-ELISA; read-out: Tie 2 activity (assay 1)
pIC50: −log10 of the molar value.
readout.type: pIC50

Query: Form field: reported pIC50 of "Cn1ncc2c(-c3ccc(NC(=O)Nc4cccc(C(F)(F)F)c4)c(F)c3)cncc21"
Reply: > 6.30

Query: Form field: reported pIC50 of "CN(C)c1ccc(C(F)(F)F)cc1NC(=O)Nc1ccc(-c2cncc3c2cnn3C)cc1"
Reply: > 6.30

Query: Form field: reported pIC50 of "CCc1cccc(NC(=O)Nc2ccc(-c3cncc4c3cnn4C)cc2)c1"
Reply: > 6.30

Query: Form field: reported pIC50 of "Cn1ncc2c(-c3ccc(NC(=O)Nc4ccc(CN5CCN(CC6CC6)CC5)c(C(F)(F)F)c4)cc3)cncc21"
Reply: > 6.30

Query: Form field: reported pIC50 of "CCn1ncc2c(-c3ccc(NC(=O)Nc4cc(C)ccc4F)c(F)c3)cncc21"
Reply: > 6.30

Query: Form field: reported pIC50 of "Cn1ncc2c(-c3ccc(NC(=O)Nc4cc(C(C)(C)C)nn4-c4cncc(F)c4)c(F)c3)cncc21"
Reply: > 6.30

Query: Form field: reported pIC50 of "CN1CCN(Cc2ccc(NC(=O)Nc3ccc(-c4cncc5c4cnn5C)cc3F)cc2C(F)(F)F)CC1"
Reply: > 6.30

Query: Form field: reported pIC50 of "Cn1ncc2c(-c3ccc(NC(=O)Nc4cc(C(F)(F)F)ccc4Cl)cc3)cncc21"
Reply: > 6.30

Query: Form field: reported pIC50 of "O=C(Nc1ccc(-c2cncc3c2cnn3CCO)cc1)Nc1cc(C(F)(F)F)ccc1F"
Reply: > 6.30

Query: Form field: reported pIC50 of "Cn1nc(C(C)(C)C)cc1NC(=O)Nc1ccc(-c2cncc3c2cnn3C)cc1"
Reply: > 6.30

Query: Form field: reported pIC50 of "Cn1ncc2c(-c3ccc(NC(=O)Nc4cc(C(C)(C)C)nn4-c4ccccc4)cc3)cncc21"
Reply: > 6.30

Query: Form field: reported pIC50 of "Cn1ncc2c(-c3ccc(NC(=O)Nc4cc(C(F)(F)F)ccc4F)c(F)c3)cncc21"
Reply: > 6.30

Query: Form field: reported pIC50 of "CC(C)c1cc(NC(=O)Nc2ccc(-c3cncc4c3cnn4C)cc2)n(-c2cccc(F)c2)n1"
Reply: > 6.30

Query: Form field: reported pIC50 of "COc1cccc(-n2nc(C(C)(C)C)cc2NC(=O)Nc2ccc(-c3cncc4c3cnn4C)cc2)c1"
Reply: > 6.30

Query: Form field: reported pIC50 of "CC(C)c1cc(NC(=O)Nc2ccc(-c3cncc4c3cnn4C)cc2F)n(-c2cccc(F)c2)n1"
Reply: > 6.30

Query: Form field: reported pIC50 of "Cn1ncc2c(-c3ccc(NC(=O)Nc4cc(C(F)(F)F)ccc4F)cc3)cncc21"
Reply: > 6.30

###

target.under.test: Tie2 (Homo sapiens, UniProt Q02763)
measurement.notes: Tie2 ELISA assay (cellular Tie2 autophosphorylation)
Assay type: cell-based
Design: expressed in transfected cells; host or cells: CHO (CHO Tie2/DHFR)
conditions: CHO cells stably transfected with Tie2, stimulated by angiopoietin-2; Tie2 autophosphorylation by sandwich-ELISA; read-out: Tie 2 activity (assay 1)
readout.type: IC50

Query: Form field: reported IC50 of "Cn1ncc2c(-c3ccc(NC(=O)Nc4cccc(C(F)(F)F)c4)cc3)cncc21"
Reply: < 501 nM

Query: Form field: reported IC50 of "COCCn1ncc2c(-c3ccc(NC(=O)Nc4cc(C)ccc4F)cc3)cncc21"
Reply: < 501 nM

Query: Form field: reported IC50 of "CCn1ncc2c(-c3ccc(NC(=O)Nc4cc(C(F)(F)F)ccc4F)c(F)c3)cncc21"
Reply: < 501 nM
